Value source: patent US8987314B2

# ASSAY TARGET: hepatic lipase (HL) (Homo sapiens (Human))
# Sequence (P11150 23-499, species assumed): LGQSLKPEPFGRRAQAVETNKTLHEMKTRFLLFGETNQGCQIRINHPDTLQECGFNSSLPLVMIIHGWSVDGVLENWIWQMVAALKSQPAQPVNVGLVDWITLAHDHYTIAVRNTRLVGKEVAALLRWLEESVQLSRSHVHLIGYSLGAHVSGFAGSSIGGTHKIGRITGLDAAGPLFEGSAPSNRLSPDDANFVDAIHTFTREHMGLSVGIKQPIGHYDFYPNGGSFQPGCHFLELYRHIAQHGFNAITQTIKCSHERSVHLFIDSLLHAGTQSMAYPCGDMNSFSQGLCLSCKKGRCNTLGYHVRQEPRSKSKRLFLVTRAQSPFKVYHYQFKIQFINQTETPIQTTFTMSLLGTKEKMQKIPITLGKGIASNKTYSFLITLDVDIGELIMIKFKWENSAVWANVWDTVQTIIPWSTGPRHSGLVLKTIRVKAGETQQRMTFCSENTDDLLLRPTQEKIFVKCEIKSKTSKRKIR
# METHOD SUMMARY: HL assay: hepatic lipase activity with fluorescent substrate A10070 in DMPG vesicles
# Assay type: biochemical
QUANTITY KIND: IC50 (nM)

P: CS(=O)(=O)C(C(=O)NCCS(N)(=O)=O)c1nc2cc(-c3ccncc3F)ccc2s1 (stereo not drawn)
Q: NS(=O)(=O)CCNC(=O)C(c1nc2ccc(-c3ccnc(F)c3)cc2s1)S(=O)(=O)CCC(F)(F)F (stereo not drawn)
Smaller IC50 value, P vs Q ? State the label of the item chosen.
P

a: CS(=O)(=O)C(C(=O)NCCS(N)(=O)=O)c1nc2cc(-c3cccnc3F)ccc2s1 (stereo not drawn)
b: CS(=O)(=O)C(C(=O)NCCS(N)(=O)=O)c1nc2ccc(-c3ccc4c(c3)CNC4=O)cc2s1 (stereo not drawn)
Smaller IC50 value, a vs b ? State the label of the item chosen.
a

P: NS(=O)(=O)CCNC(=O)C(c1nc2ccc(-c3cccc(C(=O)N4CC(F)C4)c3)cc2s1)S(=O)(=O)CCC(F)(F)F (stereo not drawn)
Q: NS(=O)(=O)CCNC(=O)C(c1nc2ccc(-c3cccc(C(=O)N4CC[C@@H](O)C4)c3)cc2s1)S(=O)(=O)CCC(F)(F)F (stereo partly drawn)
R: COCCS(=O)(=O)C(C(=O)NCCS(N)(=O)=O)c1nc2ccc(-c3ccc(C(=O)N4CCOCC4)cc3)cc2s1 (stereo not drawn)
S: CS(=O)(=O)C(C(=O)NCCS(N)(=O)=O)c1nc2ccc(-c3cccc(N4CCCC4)c3)cc2s1 (stereo not drawn)
T: NS(=O)(=O)CCNC(=O)C(c1nc2ccc(-c3ccccc3)cc2s1)S(=O)(=O)CC1CC1 (stereo not drawn)
Reorder: IC50, max to min. Output spec: labels arranged per the requested ranking.
R, Q, P, T, S
(R: 1240 nM, Q: 154 nM, P: 22.6 nM, T: 10 nM, S: 1 nM)

1: NCCS(=O)(=O)C(C(=O)NCCS(N)(=O)=O)c1nc2ccc(-c3ccccc3)cc2s1 (stereo not drawn)
2: COCCN(C)C(=O)c1ccc(-c2ccc3nc(C(C(=O)NCCS(N)(=O)=O)S(=O)(=O)Cc4ccc(C(F)(F)F)cc4)sc3c2)cc1 (stereo not drawn)
3: NS(=O)(=O)c1cccc(CNC(=O)C(c2nc3ccc(-c4ccc(C(=O)N5CCCC5)cc4)cc3s2)S(=O)(=O)Cc2ccccc2)c1 (stereo not drawn)
Reorder: IC50, max to min. Output spec: labels arranged per the requested ranking.
2, 3, 1

###

# ASSAY TARGET: hepatic lipase (HL) (Homo sapiens (Human))
# METHOD SUMMARY: HL assay: hepatic lipase activity with fluorescent substrate A10070 in DMPG vesicles
# Format: biochemical
QUANTITY KIND: IC50 (nM)

a: CS(=O)(=O)C(C(=O)NCCS(N)(=O)=O)c1nc2ccc(-c3ccc(C(=O)NC4COC4)cc3)cc2s1 (stereo not shown) [Example B178]
b: NS(=O)(=O)CCNC(=O)C(c1nc2ccc(-c3cncnc3)cc2s1)S(=O)(=O)Cc1ccc(F)cc1 (stereo not shown) [Example B143]
c: NS(=O)(=O)CCNC(=O)C(c1nc2ccc(-c3ccc(C(=O)NCCO)cc3)cc2s1)S(=O)(=O)CCC(F)(F)F (stereo not shown) [Example B46]
d: CO[C@H]1CCN(C(=O)c2ccc(-c3ccc4nc(C(C(=O)NCCS(N)(=O)=O)S(=O)(=O)CCC(F)(F)F)sc4c3)cc2)C1 (stereo partly shown) [Example B304]
List the 4 entries from lowest IC50 to highest IC50 value. Output spec: labels arranged per the requested ranking.
d, a, c, b

A: CC(C)(O)CNC(=O)c1ccc(-c2ccc3nc(C(C(=O)NCCS(N)(=O)=O)S(=O)(=O)Cc4ccc(F)cc4)sc3c2)cc1 (stereo not shown) [Example B242]
B: CC(C)S(=O)(=O)C(C(=O)NCCS(N)(=O)=O)c1nc2cc(C(F)(F)F)c(-c3ccc(C(=O)N4CCOCC4)cc3)cc2s1 (stereo not shown) [Example B268]
Lab note: record which item had the higher IC50, A or B . State the label of the item chosen.
B
